// reported pEC50 for each item listed
Biological target: GLP-1 Receptor (Homo sapiens, UniProt P43220)
Sequence (P43220 24-463): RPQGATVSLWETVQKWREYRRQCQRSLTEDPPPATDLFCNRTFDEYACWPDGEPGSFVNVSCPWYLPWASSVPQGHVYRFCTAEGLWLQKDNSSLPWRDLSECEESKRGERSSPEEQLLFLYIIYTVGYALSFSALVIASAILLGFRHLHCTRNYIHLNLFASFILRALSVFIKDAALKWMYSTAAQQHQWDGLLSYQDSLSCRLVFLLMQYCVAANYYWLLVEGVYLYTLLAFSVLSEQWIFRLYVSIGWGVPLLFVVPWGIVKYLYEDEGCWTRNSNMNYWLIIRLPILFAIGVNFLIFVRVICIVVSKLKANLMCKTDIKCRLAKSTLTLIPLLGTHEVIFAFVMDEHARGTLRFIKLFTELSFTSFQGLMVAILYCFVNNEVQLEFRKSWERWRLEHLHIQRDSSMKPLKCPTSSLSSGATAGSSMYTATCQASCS
Experiment: GLP-1R agonist cAMP stimulation assay (HEK293/GLP1R/CRE-LUC cells, HTRF cAMP dynamic 2 kit)
Settings: HEK293/CRE-Luc cell line stably expressing the GLP-1 Receptor; 30 min incubation at 37° C.
pEC50: −log10 of the molar value.

According to the records, this molecule O=c1[nH]c(-c2ccc3nc(CN4CCc5ccc(OCc6ccc(Cl)cc6F)nc5C4)n(C[C@@H]4CCO4)c3c2)no1 displays pEC50 of 6.52 to 9.00

According to the records, this molecule Fc1cc(Cl)ccc1COc1nc2c(cc1C(F)(F)F)CCN(Cc1nc3cc(-c4nnc(C(F)(F)F)[nH]4)ncc3n1C[C@@H]1CCCO1)C2 displays pEC50 of 6.52 to 9.00

According to the records, this molecule O=c1[nH]c(-c2cc3c(nc(CN4CCc5cc(C(F)(F)F)c(OCc6ccc(Cl)cc6F)nc5C4)n3C[C@@H]3CCO3)s2)no1 displays pEC50 of > 9.00

According to the records, this molecule O=c1ccc(-c2cc3nc(CN4CCc5cc(C(F)(F)F)c(OCc6ccc(Cl)cc6F)nc5C4)n(C[C@@H]4CCO4)c3cn2)c[nH]1 displays pEC50 of < 6.52

According to the records, this molecule CSc1nnc(-c2ccc3c(c2)nc(CN2CCc4cc(C(F)(F)F)c(OCc5ccc(Cl)cc5F)nc4C2)n3C[C@@H]2CCO2)[nH]1 displays pEC50 of > 9.00

According to the records, this molecule O=c1[nH]c(-c2cnc3c(c2)nc(CN2CCc4cc(C(F)(F)F)c(OCc5ccc(Cl)cc5F)nc4C2)n3C[C@@H]2CCO2)no1 displays pEC50 of > 9.00

According to the records, this molecule N#Cc1nnc(-c2cc3nc(CN4CCc5cc(C(F)(F)F)c(OCc6ccc(Cl)cc6F)nc5C4)n(C[C@@H]4CCO4)c3cn2)[nH]1 displays pEC50 of > 9.00

###

// reported pEC50 for each item listed
Target: UniProt P43220
Test: GLP-1R agonist cAMP stimulation assay (HEK293/GLP1R/CRE-LUC cells, HTRF cAMP dynamic 2 kit)
Type: cell-based
Conditions: HEK293/CRE-Luc cell line stably expressing the GLP-1 Receptor; 30 min incubation at 37° C.
pEC50: −log10 of the molar value.

Record excerpt, results attached:
O=c1[nH]c(-c2ccc3c(nc(CN4CCc5cc(C(F)(F)F)c(OCc6ccc(Cl)cc6)nc5C4)n3C[C@@H]3CCO3)c2F)no1; > 9.00
O=c1[nH]c(-c2ccc3c(nc(CN4CCc5cc(C(F)(F)F)c(OCc6ccc(Cl)cc6F)nc5C4)n3C[C@@H]3CCO3)c2F)no1; > 9.00
N#Cc1cc2c(nc1OCc1c(F)cc(Cl)cc1F)CN(Cc1nc3cc(-c4nnc(C(F)F)[nH]4)ncc3n1C[C@@H]1CCO1)CC2; > 9.00

// assay UniProt P43220, entry Cc1cc2c(nc1OCc1c(F)cc(Cl)cc1F)CN(Cc1nc3cc(-c4nnc(C#N)[nH]4)cnc3n1C[C@@H]1CCO1)CC2 , pEC50 value = > 9.00

###

Target: UniProt P43220
Test: GLP-1R agonist cAMP stimulation assay (HEK293/GLP1R/CRE-LUC cells, HTRF cAMP dynamic 2 kit)
Conditions: HEK293/CRE-Luc cell line stably expressing the GLP-1 Receptor; 30 min incubation at 37° C.
Description: Activation of GLP-1 receptor is known to stimulate cyclic AMP (cAMP) production in cells which indicates primary coupling to the Gas subunit of the G protein heterotrimeric complex. To optimize functional activity directed toward Gas coupling, a HEK293/CRE-Luc cell line developed by HDB stably expressing the GLP-1 Receptor was used. […] After incubation the cAMP assay signal was generated using cAMP dynamic 2 Kit (Cisbio). […] Read the fluorescence at 665 and 615 nm with Reader PerkinElmer EnVision.
// reported EC50 for each item listed

Record excerpt, results attached:
Fc1cc(Cl)ccc1COc1nc2c(cc1C(F)(F)F)CCN(Cc1nc3sc(-c4nnc(C(F)(F)F)[nH]4)cc3n1C[C@@H]1CCO1)C2; < 1 nM
Fc1cc(Cl)ccc1COc1nc2c(cc1C(F)(F)F)CCN(Cc1nc3c(F)c(-c4nnn[nH]4)ccc3n1C[C@@H]1CCO1)C2; < 1 nM

In the following, a different compound is considered.
According to the records, this compound CC(c1nc2cc(-c3nnc(C(F)(F)F)[nH]3)ncc2n1C[C@@H]1CCO1)N1CCc2cc(C(F)(F)F)c(OCc3c(F)cc(Cl)cc3F)nc2C1 (stereo partly drawn) displays EC50 of < 1 nM

###

Target: GLP-1 Receptor (Homo sapiens, UniProt P43220)
Experiment: GLP-1R agonist cAMP stimulation assay (HEK293/GLP1R/CRE-LUC cells, HTRF cAMP dynamic 2 kit)
Settings: HEK293/CRE-Luc cell line stably expressing the GLP-1 Receptor; 30 min incubation at 37° C.
OBSERVABLE: EC50

Fc1cc(Cl)ccc1COc1nc2c(cc1C(F)(F)F)CCN(Cc1nc3cc(-c4nnc(C(F)(F)F)[nH]4)ncc3n1C[C@H]1CCOC1)C2; 1 to 300 nM
Cc1nnc(-c2cc3c(nc(CN4CCc5cc(C(F)(F)F)c(OCc6ccc(Cl)cc6F)nc5C4)n3C[C@@H]3CCO3)s2)[nH]1; 1 to 300 nM
O=c1[nH]c(-c2cc3nc(CN4CCc5cc(C(F)(F)F)c(OCc6c(F)cc(Cl)cc6F)nc5C4)n(C[C@@H]4CCO4)c3cn2)no1; < 1 nM
Cc1nnc(-c2ccc3c(nc(CN4CCc5cc(C(F)(F)F)c(OCc6ccc(Cl)cc6)nc5C4)n3C[C@@H]3CCO3)c2F)[nH]1; < 1 nM
Cc1nnc(-c2cc3nc(CN4CCc5cc(C(F)(F)F)c(OCc6c(F)cc(Cl)cc6F)nc5C4)n(C[C@@H]4CCO4)c3cn2)[nH]1; < 1 nM

In the following, a different compound is considered.
According to the records, this compound O=c1cc(-c2cc3nc(CN4CCc5cc(C(F)(F)F)c(OCc6ccc(Cl)cc6F)nc5C4)n(C[C@@H]4CCO4)c3cn2)cc[nH]1 displays EC50 of > 300 nM

###

// reported EC50 for each item listed
Biological target: GLP-1 Receptor (Homo sapiens, UniProt P43220)
Assay: GLP-1R agonist cAMP stimulation assay (HEK293/GLP1R/CRE-LUC cells, HTRF cAMP dynamic 2 kit)
Details: HEK293/CRE-Luc cell line stably expressing the GLP-1 Receptor; 30 min incubation at 37° C.

// assay GLP-1 Receptor (Homo sapiens, UniProt P43220), entry Cc1cc2c(nc1OCc1c(F)cc(Cl)cc1F)CN(Cc1nc3cc(-c4nnc(C#N)[nH]4)ncc3n1C[C@@H]1CCO1)CC2 , EC50 value = < 1 nM

// assay GLP-1 Receptor (Homo sapiens, UniProt P43220), entry Cc1cc2c(nc1OCc1c(F)cc(Cl)cc1F)CN(Cc1nc3cc(-c4noc(=O)[nH]4)ccc3n1C[C@@H]1CCO1)CC2 , EC50 value = < 1 nM

// assay GLP-1 Receptor (Homo sapiens, UniProt P43220), entry NC(=O)c1nnc(-c2cc3nc(CN4CCc5cc(C(F)(F)F)c(NCc6ccc(Cl)cc6F)nc5C4)n(C[C@@H]4CCO4)c3cn2)[nH]1 , EC50 value = < 1 nM

// assay GLP-1 Receptor (Homo sapiens, UniProt P43220), entry CNC(=O)c1ccc2c(nc(CN3CCc4cc(C(F)(F)F)c(OCc5ccc(Cl)cc5F)nc4C3)n2C[C@@H]2CCO2)c1F , EC50 value = 1 to 300 nM
